Below, each entry is listed with its recorded CC50 at 120 h.
Assay: Cytotoxicity against human MT4 cells after 5 days MTT assay
Assay type: cell-based
ASSAY_READOUT: CC50 at 120 h

{"COMPOUND": "Cc1cnc(Nc2ccc(C#N)cc2)nc1OCC(=O)Nc1ccc(C#N)cc1", "REPORTED_VALUE": "≥ 48.4 µM"}
{"COMPOUND": "CC(C)Nc1cccnc1N1CCN(C(=O)c2cc3cc(NS(C)(=O)=O)ccc3[nH]2)CC1 [DELAVIRDINE]", "REPORTED_VALUE": "> 43.8 µM"}
{"COMPOUND": "Cc1cc(OCC(=O)Nc2ccc(F)cc2)nc(Nc2ccc(C#N)cc2)n1", "REPORTED_VALUE": "> 331 µM"}
{"COMPOUND": "Cc1cnc(Nc2ccc(C#N)cc2)nc1OCC(=O)Nc1cccc(Cl)c1", "REPORTED_VALUE": "144 µM"}
{"COMPOUND": "Cc1cc(OCC(=O)Nc2cccc(Cl)c2)nc(Nc2ccc(C#N)cc2)n1", "REPORTED_VALUE": "32.1 µM"}
{"COMPOUND": "O=C1Nc2ccc(Cl)cc2[C@@](C#CC2CC2)(C(F)(F)F)O1 [EFAVIRENZ]", "REPORTED_VALUE": "> 6.34 µM"}
{"COMPOUND": "Cc1cnc(Nc2ccc(C#N)cc2)nc1OCC(=O)Nc1ccc([N+](=O)[O-])cc1", "REPORTED_VALUE": "66.3 µM"}
{"COMPOUND": "COc1ccc(NC(=O)COc2ccnc(Nc3ccc(C#N)cc3)n2)cc1", "REPORTED_VALUE": "> 333 µM"}
{"COMPOUND": "Cc1cnc(Nc2ccc(C#N)cc2)nc1OCC(=O)Nc1ccc(Br)cc1", "REPORTED_VALUE": "34.7 µM"}
{"COMPOUND": "Cc1cc(OCC(=O)Nc2ccc([N+](=O)[O-])cc2)nc(Nc2ccc(C#N)cc2)n1", "REPORTED_VALUE": "> 309 µM"}
{"COMPOUND": "N#Cc1ccc(Nc2nccc(OCC(=O)Nc3ccc(F)cc3)n2)cc1", "REPORTED_VALUE": "> 344 µM"}
{"COMPOUND": "N#Cc1ccc(Nc2nccc(OCC(=O)Nc3cccc(Cl)c3)n2)cc1", "REPORTED_VALUE": "> 329 µM"}
{"COMPOUND": "Cc1cnc(Nc2ccc(C#N)cc2)nc1OCC(=O)Nc1ccc(F)cc1", "REPORTED_VALUE": "> 331 µM"}
{"COMPOUND": "Cc1cnc(Nc2ccc(C#N)cc2)nc1OCC(=O)Nc1ccc(C#N)cc1F", "REPORTED_VALUE": "> 311 µM"}
{"COMPOUND": "Cc1cc(OCC(=O)Nc2ccc(C#N)cc2F)nc(Nc2ccc(C#N)cc2)n1", "REPORTED_VALUE": "> 311 µM"}
{"COMPOUND": "N#Cc1ccc(Nc2nccc(OCC(=O)Nc3ccc(Cl)cc3)n2)cc1", "REPORTED_VALUE": "162 µM"}
{"COMPOUND": "Cc1cnc(Nc2ccc(C#N)cc2)nc1OCC(=O)Nc1ccccc1Cl", "REPORTED_VALUE": "197 µM"}
{"COMPOUND": "Cc1cnc(Nc2ccc(C#N)cc2)nc1OCC(=O)Nc1ccc(Cl)cc1", "REPORTED_VALUE": "> 317 µM"}
{"COMPOUND": "Cc1cnc(Nc2ccc(C#N)cc2)nc1OCC(=O)Nc1ccccc1F", "REPORTED_VALUE": "> 331 µM"}
{"COMPOUND": "Cc1cc(C#N)cc(C)c1Oc1nc(Nc2ccc(C#N)cc2)nc(N)c1Br [ETRAVIRINE]", "REPORTED_VALUE": "13.3 µM"}
{"COMPOUND": "N#Cc1ccc(Nc2nccc(OCC(=O)Nc3ccc(C#N)cc3F)n2)cc1", "REPORTED_VALUE": "> 322 µM"}
{"COMPOUND": "Cc1cc(OCC(=O)Nc2ccc(C#N)cc2)nc(Nc2ccc(C#N)cc2)n1", "REPORTED_VALUE": "> 325 µM"}
{"COMPOUND": "Cc1ccnc2c1NC(=O)c1cccnc1N2C1CC1 [NEVIRAPINE]", "REPORTED_VALUE": "> 15 µM"}
{"COMPOUND": "Cc1cc(OCC(=O)Nc2ccc(Cl)cc2)nc(Nc2ccc(C#N)cc2)n1", "REPORTED_VALUE": "2.63 µM"}
{"COMPOUND": "N#Cc1ccc(Nc2nccc(OCC(=O)Nc3ccc([N+](=O)[O-])cc3)n2)cc1", "REPORTED_VALUE": "> 320 µM"}
{"COMPOUND": "O=c1[nH]cnc2c1ncn2[C@H]1CC[C@@H](CO)O1 [DIDANOSINE]", "REPORTED_VALUE": "> 212 µM"}
{"COMPOUND": "N#Cc1ccc(NC(=O)COc2ccnc(Nc3ccc(C#N)cc3)n2)cc1", "REPORTED_VALUE": "> 338 µM"}
{"COMPOUND": "Cc1cn([C@H]2C[C@H](N=[N+]=[N-])[C@@H](CO)O2)c(=O)[nH]c1=O [ZIDOVUDINE]", "REPORTED_VALUE": "> 93.5 µM"}
{"COMPOUND": "Cc1cc(OCC(=O)Nc2ccc(Br)cc2)nc(Nc2ccc(C#N)cc2)n1", "REPORTED_VALUE": "0.93 µM"}
{"COMPOUND": "Nc1ccn([C@@H]2CS[C@H](CO)O2)c(=O)n1 [LAMIVUDINE]", "REPORTED_VALUE": "> 87.2 µM"}
